# System: Pseudomonas aeruginosa ATCC27853
# assayNotes: Antibiofilm assay (crystal violet), MBIC
# Format: cell-based
# testConditions: 24 h, 37 °C
propertyMeasured: Minimum biofilm inhibition concentration (MBIC), Pseudomonas aeruginosa ATCC27853 (µg/mL)
Provide the reading as a plain figure in µg/mL.

Some solved cases for reference:
smiles	quantitativeReadout
Cc1nn(CNc2ccccc2Cl)c(C)c1[N+](=O)[O-]	460
Cc1nn(CNc2ccc(Cl)cc2)c(C)c1[N+](=O)[O-]	460
Cc1nn(CN(Cn2nc(C)c([N+](=O)[O-])c2C)c2ccc(Br)cc2)c(C)c1[N+](=O)[O-]	1870
Cc1nn(CNc2ccc(I)cc2)c(C)c1[N+](=O)[O-]	460
Cc1nn(CN(Cn2nc(C)c([N+](=O)[O-])c2C)c2ccc(Cl)cc2)c(C)c1[N+](=O)[O-]	460

The molecule Cc1nn(CN(Cn2nc(C)c([N+](=O)[O-])c2C)c2ccc(F)cc2)c(C)c1[N+](=O)[O-] showed Minimum biofilm inhibition concentration (MBIC), Pseudomonas aeruginosa ATCC27853 equal to 460

====

As shown below, each of these compounds has a reported viability at 48 h, 3.1 µg/mL value.
# assayNotes: MTT cell viability / cytotoxicity on normal fibroblasts
# Format: cell-based, mouse
# testConditions: mouse; 3.1 µg/mL, 48h; read-out: Cell viability on NCTC cells (%)

The compound Cc1nn(CN(Cn2nc(C)c([N+](=O)[O-])c2C)c2ccc(F)cc2)c(C)c1[N+](=O)[O-] showed viability at 48 h, 3.1 µg/mL equal to 87.2%

The compound Cc1nn(CN(Cn2nc(C)c([N+](=O)[O-])c2C)c2ccc(I)cc2)c(C)c1[N+](=O)[O-] showed viability at 48 h, 3.1 µg/mL equal to 93.6%

The compound Cc1nn(CN(Cn2nc(C)c([N+](=O)[O-])c2C)c2cccc(Cl)c2)c(C)c1[N+](=O)[O-] showed viability at 48 h, 3.1 µg/mL equal to 95.7%

The compound Cc1nn(CN(Cn2nc(C)c([N+](=O)[O-])c2C)c2ccc(Br)cc2)c(C)c1[N+](=O)[O-] showed viability at 48 h, 3.1 µg/mL equal to 96.7%

The compound C[C@@H]1CC[C@@]2(OC1)O[C@H]1C[C@H]3[C@@H]4CC=C5C[C@@H](O[C@@H]6O[C@H](CO)[C@@H](O[C@@H]7O[C@@H](C)[C@H](O)[C@@H](O)[C@H]7O)[C@H](O)[C@H]6O[C@@H]6O[C@@H](C)[C@H](O)[C@@H](O)[C@H]6O)CC[C@]5(C)[C@H]4CC[C@]3(C)[C@H]1[C@@H]2C [dioscin, reference compound] showed viability at 48 h, 3.1 µg/mL equal to 94.2%

The compound Cc1nn(CN(Cn2nc(C)c([N+](=O)[O-])c2C)c2ccc(Cl)cc2)c(C)c1[N+](=O)[O-] showed viability at 48 h, 3.1 µg/mL equal to 100%

====

# assayNotes: MTT cell viability / cytotoxicity on normal fibroblasts
# Assay type: cell-based, mouse
# testConditions: mouse; 25 µg/mL, 24h; read-out: Cell viability on NCTC cells (%)
# From the text: Merck chemicals were utilized. Untreated cells were used as control, considered 100% viable cells.
As shown below, each of these compounds has a reported viability at 24 h, 25 µg/mL value.
Provide the reading as a plain figure in %.

compound	propertyMeasured	quantitativeReadout
Cc1nn(CN(Cn2nc(C)c([N+](=O)[O-])c2C)c2ccc(I)cc2)c(C)c1[N+](=O)[O-]	viability at 24 h, 25 µg/mL	98.4
Cc1nn(CN(Cn2nc(C)c([N+](=O)[O-])c2C)c2ccc(Cl)cc2)c(C)c1[N+](=O)[O-]	viability at 24 h, 25 µg/mL	70
Cc1nn(CN(Cn2nc(C)c([N+](=O)[O-])c2C)c2cccc(Cl)c2)c(C)c1[N+](=O)[O-]	viability at 24 h, 25 µg/mL	77.7
Cc1nn(CN(Cn2nc(C)c([N+](=O)[O-])c2C)c2ccc(F)cc2)c(C)c1[N+](=O)[O-]	viability at 24 h, 25 µg/mL	97.4
Cc1nn(CN(Cn2nc(C)c([N+](=O)[O-])c2C)c2ccc(Br)cc2)c(C)c1[N+](=O)[O-]	viability at 24 h, 25 µg/mL	105

The compound C[C@@H]1CC[C@@]2(OC1)O[C@H]1C[C@H]3[C@@H]4CC=C5C[C@@H](O[C@@H]6O[C@H](CO)[C@@H](O[C@@H]7O[C@@H](C)[C@H](O)[C@@H](O)[C@H]7O)[C@H](O)[C@H]6O[C@@H]6O[C@@H](C)[C@H](O)[C@@H](O)[C@H]6O)CC[C@]5(C)[C@H]4CC[C@]3(C)[C@H]1[C@@H]2C [dioscin, reference compound] showed viability at 24 h, 25 µg/mL equal to 14.9
